Cited source: ChEMBL document CHEMBL2407070

Please respond with reported pIC50 for every item in the list.
system: Vero; experiment: Cytotoxicity against african green monkey Vero cells by SRB assay; assay type: functional, cell-based; settings: Chlorocebus sabaeus
pIC50: −log10 of the molar value.

Study these solved cases before continuing.
compound string	assay target	pIC50
COC1=C2C(=CC(=O)C(O)=C2C)c2cc(OC)c(C)cc2C1=O	Vero	< 5.00
COc1cc2c3c(cc(O)c2cc1C)C(C)(C)C(=O)OC3=O	Vero	< 5.00
Cc1c2ccncc2c(C)c2c1[nH]c1ccccc12	Vero	5.92

Turning now to a further compound:
# input Give pIC50 for the following compound: COC1=Cc2c(cc(OC3=C4C(=CC(=O)C4(C)C)c4cc(OC)c(C)cc4C3=O)c3cc(C)c(OC)cc23)C(C)(C)C1=O
# output < 5.00

----------
tested on: Plasmodium falciparum; assay: Antiplasmodial activity against Plasmodium falciparum K1 after 42 hrs by microdilution method; type: functional, organism-based; conditions: K1, 42 h
measurement type: pIC50
Answers are plain numbers, as −log10 of the molar value.

Take a look at these entries with their results.
molecule	pIC50
COc1cc2c3c(cc(O)c2cc1C)C(C)(C)C(=O)OC3=O	5.41
C[C@H]1[C@@H](O)O[C@@H]2O[C@@]3(C)CC[C@H]4[C@H](C)CC[C@@H]1[C@@]24OO3 [ARTENIMOL]	8.60

// input: 3 molecules below; output: pIC50 for each
1. O[C@@H](c1cc(C(F)(F)F)nc2c(C(F)(F)F)cccc12)[C@H]1CCCCN1 (relative stereo) [(S,R)-MEFLOQUINE]
2. COC1=Cc2c(cc(OC3=C4C(=CC(=O)C4(C)C)c4cc(OC)c(C)cc4C3=O)c3cc(C)c(OC)cc23)C(C)(C)C1=O
3. COC1=C2C(=CC(=O)C(O)=C2C)c2cc(OC)c(C)cc2C1=O

# output
[7.51, 5.54, 7.71]

----------
test system: Plasmodium falciparum; test: Antiplasmodial activity against Plasmodium falciparum K1 after 42 hrs by microdilution method; type: functional, organism-based; settings: K1, 42 h
Assignment: determine reported IC50 for the given compounds.

Use the examples below as a reference point.
compound	observed measurement
COc1cc2c3c(cc(OC)c2cc1C)C(C)(O)OC3=O (stereo not drawn)	> 10 µM
COc1cc2c3c(cc(O)c2cc1C)C(C)(C)C(=O)[C@]1(OC)Oc2c(cc4c(cc(OC)c5cc(C)c(OC)cc54)c2C)O[C@H]31	> 10 µM

Proceed to the following item.
# input Under Plasmodium falciparum, report IC50 for COc1cc2c3c(cc(O)c2cc1C)C(C)(C)C(=O)[C@@]1(OC)Oc2c(cc4c(cc(OC)c5cc(C)c(OC)cc54)c2C)O[C@H]31
# output > 10 µM
